assay: Pharmacokinetics in healthy subjects after oral administration (radiolabeled and non-radiolabeled); type: in vivo, human; settings: human, in vivo, po, after oral administration; read-out: Initial half-life (converted)

{"columns": ["compound", "half-life"],
 "data": [
  ["NC(=O)N[C@@H](CCC(=O)O)C(=O)O [carglumic acid, N-carbamoyl-L-glutamic acid]", "~5.6 h"]
]}

* * *

assay: CARIV-A-001 Part A: single ascending IV doses over 20 minutes in healthy subjects; type: in vivo, human; details: both sexes, human, plasma and urine, iv, 5 mg/kg, IV over 20 minutes, 5.0 mg/kg; read-out: Renal Clearance (RCl), Mean

{"columns": ["compound smiles", "CL renal [mL/min/kg]"],
 "data": [
  ["NC(=O)N[C@@H](CCC(=O)O)C(=O)O", 3.83]
]}

* * *

experiment: CARIV-A-001 Part B: cross-over IV infusion over 2 hours vs oral tablet 100 mg/kg in healthy subjects; type: in vivo, human; settings: both sexes, human, plasma, oral, 100 mg/kg, OR, 100 mg/kg, N 12; read-out: Cmax, Median

{"columns": ["compound smiles", "Cmax"],
 "data": [
  ["NC(=O)N[C@@H](CCC(=O)O)C(=O)O", "2940 ng/mL"]
]}

* * *

assay: CARIV-A-001 Part A: single ascending IV doses over 20 minutes in healthy subjects; assay type: in vivo, human; conditions: both sexes, human, plasma, iv, 7.5 mg/kg, IV over 20 minutes, 7.5 mg/kg; read-out: T1/2, Median

{"columns": ["compound smiles", "unit descriptor", "half-life"],
 "data": [
  ["NC(=O)N[C@@H](CCC(=O)O)C(=O)O", "h", 25.5]
]}

* * *

experiment: Nonclinical safety study in rats: exposure; details: rat, in vivo, read-out: Cmax, exposure previously observed

{"columns": ["compound smiles", "unit descriptor", "Cmax"],
 "data": [
  ["NC(=O)N[C@@H](CCC(=O)O)C(=O)O", "µg/mL", 52]
]}

* * *

Assay: CARIV-A-001 Part A: single ascending IV doses over 20 minutes in healthy subjects
Format: in vivo, human
Conditions: both sexes, human, plasma, iv, 5 mg/kg, IV over 20 minutes, 5.0 mg/kg; read-out: AUCinf, Mean
Protocol: This study was conducted in healthy male or female volunteers, at a single site to assess the safety and PK profile of an IV formulation of Carbaglu and to determine the absolute bioavailability of the current marketed oral formulation of Carbaglu. The levels of CGA in plasma and urine were analysed using a fully validated method, which included LC-MS/MS analysis. The PK data were analysed based on a non-compartmental model. […]

{"columns": ["molecule", "AUC(0-inf) (ng·h/mL)"],
 "data": [
  ["NC(=O)N[C@@H](CCC(=O)O)C(=O)O [carglumic acid, N-carbamoyl-L-glutamic acid]", 16100]
]}

* * *

assay: CARIV-A-001 Part B: cross-over IV infusion over 2 hours vs oral tablet 100 mg/kg in healthy subjects; type: in vivo, human; conditions: both sexes, human, plasma, iv, 8 mg/kg, IV, 8 mg/kg, N 10; read-out: AUCinf, Median

{"columns": ["compound smiles", "unit descriptor", "AUC(0-inf)"],
 "data": [
  ["NC(=O)N[C@@H](CCC(=O)O)C(=O)O", "ng·h/mL", 23700]
]}

* * *

experiment: CARIV-A-001 Part A: single ascending IV doses over 20 minutes in healthy subjects; type: in vivo, human; conditions: both sexes, human, plasma, iv, IV over 20 minutes, across dose groups 3.5-7.5 mg/kg; read-out: Half-life, mean value (converted)

{"columns": ["compound", "unit descriptor", "half-life"],
 "data": [
  ["NC(=O)N[C@@H](CCC(=O)O)C(=O)O [carglumic acid, N-carbamoyl-L-glutamic acid]", "h", 22]
]}

* * *

experiment: CARIV-A-001 Part A: single ascending IV doses over 20 minutes in healthy subjects; type: in vivo, human; conditions: both sexes, human, plasma, iv, 3.5 mg/kg, IV over 20 minutes, 3.5 mg/kg; read-out: T1/2, Mean
measure: half-life

{"columns": ["compound smiles", "result"],
 "data": [
  ["NC(=O)N[C@@H](CCC(=O)O)C(=O)O", "20.6 h"]
]}

* * *

assay: CARIV-A-001 Part B: cross-over IV infusion over 2 hours vs oral tablet 100 mg/kg in healthy subjects; type: in vivo, human; details: OR, 100 mg/kg, N 12

{"columns": ["compound smiles", "Cmax, Max [ng/mL]"],
 "data": [
  ["NC(=O)N[C@@H](CCC(=O)O)C(=O)O", 5620]
]}

* * *

experiment: CARIV-A-001 Part A: single ascending IV doses over 20 minutes in healthy subjects; format: in vivo, human; details: both sexes, human, plasma, iv, 5 mg/kg, IV over 20 minutes, 5.0 mg/kg; read-out: AUC24h, Median
measure: AUC(0-t) (ng·h/mL)

{"columns": ["molecule", "result number"],
 "data": [
  ["NC(=O)N[C@@H](CCC(=O)O)C(=O)O [carglumic acid, N-carbamoyl-L-glutamic acid]", 14900]
]}

* * *

Assay: CARIV-A-001 Part A: single ascending IV doses over 20 minutes in healthy subjects
Type: in vivo, human
Details: both sexes, human, plasma, iv, 3.5 mg/kg, IV over 20 minutes, 3.5 mg/kg; read-out: AUC24h, Range
Protocol: This study was conducted in healthy male or female volunteers, at a single site to assess the safety and PK profile of an IV formulation of Carbaglu and to determine the absolute bioavailability of the current marketed oral formulation of Carbaglu. The levels of CGA in plasma and urine were analysed using a fully validated method, which included LC-MS/MS analysis. The PK data were analysed based on a non-compartmental model. […]

{"columns": ["compound smiles", "AUC(0-t)"],
 "data": [
  ["NC(=O)N[C@@H](CCC(=O)O)C(=O)O", "8990 to 11000 ng·h/mL"]
]}

* * *

assay: CARIV-A-001 Part A: single ascending IV doses over 20 minutes in healthy subjects; format: in vivo, human; details: both sexes, human, plasma, iv, 3.5 mg/kg, IV over 20 minutes, 3.5 mg/kg; read-out: AUClast-timepoint, Median

{"columns": ["compound smiles", "AUC(0-t) / µg·h/mL"],
 "data": [
  ["NC(=O)N[C@@H](CCC(=O)O)C(=O)O", 10.1]
]}

* * *

experiment: CARIV-A-001 Part A: single ascending IV doses over 20 minutes in healthy subjects; assay type: in vivo, human; conditions: both sexes, human, plasma, iv, 5 mg/kg, IV over 20 minutes, 5.0 mg/kg; read-out: Clearance (Cl), Range

{"columns": ["compound smiles", "clearance"],
 "data": [
  ["NC(=O)N[C@@H](CCC(=O)O)C(=O)O", "4.17 to 6.83 mL/min/kg"]
]}

* * *

test: Pharmacokinetics in healthy subjects after oral administration (radiolabeled and non-radiolabeled); assay type: in vivo, human; details: human, plasma, po; read-out: Tmax, range

{"columns": ["compound smiles", "Tmax"],
 "data": [
  ["NC(=O)N[C@@H](CCC(=O)O)C(=O)O", "2 to 4 h"]
]}

* * *

assay: CARIV-A-001 Part A: single ascending IV doses over 20 minutes in healthy subjects; assay type: in vivo, human; settings: both sexes, human, plasma, iv, 7.5 mg/kg, IV over 20 minutes, 7.5 mg/kg; read-out: AUCinf, Mean

{"columns": ["compound smiles", "unit descriptor", "AUC(0-inf)"],
 "data": [
  ["NC(=O)N[C@@H](CCC(=O)O)C(=O)O", "ng·h/mL", 23900]
]}

* * *

assay: CARIV-A-001 Part B: cross-over IV infusion over 2 hours vs oral tablet 100 mg/kg in healthy subjects; format: in vivo, human; conditions: both sexes, human, plasma and urine; after IV administration; read-out: Renal clearance (converted)

{"columns": ["compound smiles", "CL renal"],
 "data": [
  ["NC(=O)N[C@@H](CCC(=O)O)C(=O)O", "~5 mL/min/kg"]
]}

* * *

assay: CARIV-A-001 Part B: cross-over IV infusion over 2 hours vs oral tablet 100 mg/kg in healthy subjects; assay type: in vivo, human; conditions: both sexes, human, plasma, oral, 100 mg/kg, OR, 100 mg/kg, N 12; read-out: AUCinf, Median

{"columns": ["compound smiles", "AUC(0-inf) [ng·h/mL]"],
 "data": [
  ["NC(=O)N[C@@H](CCC(=O)O)C(=O)O", 30200]
]}

* * *

experiment: CARIV-A-001 Part B: cross-over IV infusion over 2 hours vs oral tablet 100 mg/kg in healthy subjects; assay type: in vivo, human; settings: both sexes, human, plasma, oral; OR, 100 mg/kg, N 12; read-out: aucL, Median

{"columns": ["compound smiles", "AUC / ng·h/mL"],
 "data": [
  ["NC(=O)N[C@@H](CCC(=O)O)C(=O)O", 29100]
]}

* * *

assay: CARIV-A-001 Part B: cross-over IV infusion over 2 hours vs oral tablet 100 mg/kg in healthy subjects; format: in vivo, human; settings: both sexes, human, plasma, iv, 8 mg/kg, IV, 8 mg/kg, N 10; read-out: AUCinf, Mean
measure: AUC(0-inf) (ng·h/mL)

{"columns": ["molecule", "measure", "unit descriptor", "result number"],
 "data": [
  ["NC(=O)N[C@@H](CCC(=O)O)C(=O)O [carglumic acid, N-carbamoyl-L-glutamic acid]", "AUC(0-inf)", "ng·h/mL", 24500]
]}
